For each entry below, report its STK11 functional score value.
B1: library; numbered along this chain (parent)
chain: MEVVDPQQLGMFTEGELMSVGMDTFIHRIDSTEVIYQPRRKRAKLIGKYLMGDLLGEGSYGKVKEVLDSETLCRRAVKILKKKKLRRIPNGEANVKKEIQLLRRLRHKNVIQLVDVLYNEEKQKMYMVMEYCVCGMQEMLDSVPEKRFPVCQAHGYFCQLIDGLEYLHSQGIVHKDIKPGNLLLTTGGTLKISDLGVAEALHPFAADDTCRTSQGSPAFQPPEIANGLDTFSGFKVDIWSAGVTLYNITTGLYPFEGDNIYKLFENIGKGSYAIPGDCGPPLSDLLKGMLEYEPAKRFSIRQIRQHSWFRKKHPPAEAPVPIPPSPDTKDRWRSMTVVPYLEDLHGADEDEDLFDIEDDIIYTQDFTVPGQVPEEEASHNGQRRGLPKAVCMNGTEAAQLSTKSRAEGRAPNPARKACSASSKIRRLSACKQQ

Variants of: B1
TEST_SUMMARY: STK11 functional score (HeLa growth suppression), rescaled enrichment; synonymous median = 1, nonsense median = 0 (normalised score)
TEST_PARAMETERS: with HeLa; variant type: missense

R425P ... 1.51

Consider the following items and state reported STK11 functional score for each.
1. A153G
2. M129W
3. C151S
4. D258Y
5. Q170K
6. K269N
7. E376M
8. T13C

-- reply
1: 1.13; 2: 0.743; 3: 1.13; 4: 1.49; 5: 0.664; 6: 1.23; 7: 0.943; 8: 1.59

Consider the following items and state reported STK11 functional score for each.
1. G270F
2. P280Q
3. S142E
4. C134P
5. K178L
6. V110L
7. I161E
8. V143D

-- reply
1.14
1.36
1.55
1.62
0.63
1.23
-0.456
1.46

Consider the following items and state reported STK11 functional score for each.
1. C73A
2. K175L
3. V116L
4. D355E
5. A377H
6. G385D
7. Q432Y
8. D176I

-- reply
1. 1.69
2. 1.11
3. 1.14
4. 1.02
5. 0.0602
6. 1.3
7. 1.63
8. -0.156

Consider the following items and state reported STK11 functional score for each.
1. A318V
2. C151A

-- reply
[1.11, 1.4]
